TARGET_ENTITY: SRC (Homo sapiens, UniProt P12931)
Sequence (P12931 whole entry): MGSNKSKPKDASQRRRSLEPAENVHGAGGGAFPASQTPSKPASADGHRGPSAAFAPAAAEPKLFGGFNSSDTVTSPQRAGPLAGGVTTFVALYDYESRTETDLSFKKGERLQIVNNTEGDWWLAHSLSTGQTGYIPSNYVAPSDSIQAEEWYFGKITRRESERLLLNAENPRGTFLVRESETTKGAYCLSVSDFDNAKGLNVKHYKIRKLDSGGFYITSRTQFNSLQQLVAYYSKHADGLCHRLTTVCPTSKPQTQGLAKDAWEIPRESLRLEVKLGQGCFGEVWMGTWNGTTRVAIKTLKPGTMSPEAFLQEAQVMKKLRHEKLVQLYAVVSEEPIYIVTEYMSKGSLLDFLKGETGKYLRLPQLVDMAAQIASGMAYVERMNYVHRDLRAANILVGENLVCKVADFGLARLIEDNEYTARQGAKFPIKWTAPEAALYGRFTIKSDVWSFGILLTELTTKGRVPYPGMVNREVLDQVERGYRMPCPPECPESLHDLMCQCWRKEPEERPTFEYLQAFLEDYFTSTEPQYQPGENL
ASSAY_METHOD_TEXT: 33PanQinase Activity Assay, SRC
MEASUREMENT_CONDITIONS: recombinant human protein kinase, 1 μM [γ-33P]-ATP, 30° C. 80 minutes
Define the label as y when IC50 is strictly less than 600 nM and as n in all remaining cases.

> print(dat)
                               input.smiles  class.assignment
1  COc1cccc(Cc2nnc(Sc3ncnc4cc(-c5ccc(F)cc5)sc34)o2)c1                 y

Field: below-cutoff. Rule: recorded IC50 strictly less than 600 nM. Subject: `COc1ccc(-c2cc3ncnc(Sc4nnc(-c5ccc(Cl)cc5)o4)c3s2)cc1` y
